system: VDR:RXRa (NR concentration 270 nM, RXRa partner concentration 90 nM); experiment: PBM binding z-score (relative to random genomic background probes); higher = stronger binding; sequences stand for … in GC…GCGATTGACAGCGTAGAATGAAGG
If the reported PBM binding z-score equals or exceeds 2, assign MET. If not, assign NOT MET.

Before answering, review these 5 worked examples.
Chain	Assay target	Cat
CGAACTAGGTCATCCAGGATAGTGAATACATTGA	VDR:RXRa (NR concentration 270 nM, RXRa partner concentration 90 nM)	MET
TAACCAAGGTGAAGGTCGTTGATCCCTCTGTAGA	VDR:RXRa (NR concentration 270 nM, RXRa partner concentration 90 nM)	NOT MET
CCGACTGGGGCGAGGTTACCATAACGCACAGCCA	VDR:RXRa (NR concentration 270 nM, RXRa partner concentration 90 nM)	NOT MET
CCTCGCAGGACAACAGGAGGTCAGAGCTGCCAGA	VDR:RXRa (NR concentration 270 nM, RXRa partner concentration 90 nM)	NOT MET
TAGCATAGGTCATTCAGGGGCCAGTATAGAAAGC	VDR:RXRa (NR concentration 270 nM, RXRa partner concentration 90 nM)	MET

Entry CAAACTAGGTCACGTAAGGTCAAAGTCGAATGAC : is its PBM binding z-score no less than 2? MET

Entry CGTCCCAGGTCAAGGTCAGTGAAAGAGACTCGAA : is its PBM binding z-score no less than 2? MET

Entry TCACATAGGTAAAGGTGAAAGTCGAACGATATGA : is its PBM binding z-score no less than 2? NOT MET

---

test system: PPARg:RXRa 90nM:30nM, anti-RXR (NR concentration 90 nM, RXRa partner concentration 30 nM); assay: PBM binding z-score (relative to random genomic background probes); higher = stronger binding; sequences stand for … in GC…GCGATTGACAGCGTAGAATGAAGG
Quantity measured: PBM binding z-score

Chain	Readout value
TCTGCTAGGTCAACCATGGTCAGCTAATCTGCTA	2.95
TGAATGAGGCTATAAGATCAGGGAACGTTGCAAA	-0.0194
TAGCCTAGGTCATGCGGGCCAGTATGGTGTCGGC	1.2
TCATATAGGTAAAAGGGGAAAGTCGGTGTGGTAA	7.9
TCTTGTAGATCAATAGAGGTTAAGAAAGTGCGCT	2.18

Look up and report measured PBM binding z-score for this entry: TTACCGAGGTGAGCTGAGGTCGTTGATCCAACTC 0.221

Look up and report measured PBM binding z-score for this entry: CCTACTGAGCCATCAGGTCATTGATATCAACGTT 0.472

Look up and report measured PBM binding z-score for this entry: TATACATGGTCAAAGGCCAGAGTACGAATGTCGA 4.31

Look up and report measured PBM binding z-score for this entry: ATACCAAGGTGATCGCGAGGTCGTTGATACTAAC 0.108

Look up and report measured PBM binding z-score for this entry: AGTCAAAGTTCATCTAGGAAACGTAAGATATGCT 5.16

Look up and report measured PBM binding z-score for this entry: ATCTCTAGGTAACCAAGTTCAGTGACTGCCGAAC 0.958

Look up and report measured PBM binding z-score for this entry: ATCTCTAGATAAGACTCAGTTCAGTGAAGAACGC 0.00622

Look up and report measured PBM binding z-score for this entry: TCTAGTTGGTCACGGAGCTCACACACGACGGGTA 2.33

Look up and report measured PBM binding z-score for this entry: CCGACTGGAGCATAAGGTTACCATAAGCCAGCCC 0.657

Look up and report measured PBM binding z-score for this entry: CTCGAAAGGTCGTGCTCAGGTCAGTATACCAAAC 2.7

Look up and report measured PBM binding z-score for this entry: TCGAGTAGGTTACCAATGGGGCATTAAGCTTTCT 1.18

Look up and report measured PBM binding z-score for this entry: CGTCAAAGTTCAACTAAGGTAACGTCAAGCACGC 4.36

Look up and report measured PBM binding z-score for this entry: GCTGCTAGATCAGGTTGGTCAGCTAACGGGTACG -0.926

Look up and report measured PBM binding z-score for this entry: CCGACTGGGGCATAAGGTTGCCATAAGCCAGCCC 1.12

Look up and report measured PBM binding z-score for this entry: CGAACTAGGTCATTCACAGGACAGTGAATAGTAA 5.9

Look up and report measured PBM binding z-score for this entry: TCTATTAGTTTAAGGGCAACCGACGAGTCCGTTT 3.18

Look up and report measured PBM binding z-score for this entry: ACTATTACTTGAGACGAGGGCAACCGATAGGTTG 0.266

Look up and report measured PBM binding z-score for this entry: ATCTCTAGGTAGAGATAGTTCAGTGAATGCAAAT 0.104

Look up and report measured PBM binding z-score for this entry: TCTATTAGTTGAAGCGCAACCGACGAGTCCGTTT 2.67

Look up and report measured PBM binding z-score for this entry: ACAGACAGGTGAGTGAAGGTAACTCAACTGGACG -0.0513
